# assay-method-text: in vitro
# experimental-context: African green monkey
measured-property: CC50 (µg/mL)
The answer is to be given in µg/mL; state only the numeric part.

Please give the measured CC50 for this molecule: CC(C)S(=O)(=O)n1c(N)nc2ccc(/C(=N/O)c3ccccc3)cc21 3.3

----------
# assay-method-text: in vitro
# experimental-context: human
measured-property: CC50 (mg/L)
The answer is to be given in mg/L; state only the numeric part.

Please give the measured CC50 for this molecule: CCOC(=O)c1ccc(OCCC2CCN(c3ccc(C)nn3)CC2)cc1 4.3
